Each recorded value in this set is attributed to PubChem BioAssay (NCI).

- Test system: UACC-62 melanoma
- EXPERIMENT NOTES: NCI tumour cell line growth inhibition, 48 h; in the data active = GI50 below about 0.43 µM; inactive = the rest
Possible outcomes: True = active, False = inactive

O=C1OCC2=C1C(c1ccccc1)c1cc3c(cc1N2CCO)CCC3 (stereo not drawn) | True
COc1cc(-c2nn(C)nc2-c2cc3ccccc3s2)cc(OC)c1OC | True
NC(=O)Cc1ccccc1Oc1nccc(-c2c(-c3ccc(F)cc3)ncn2C2CCNCC2)n1 | False

----------
- Tested on: HOP-62 NSCLC
- EXPERIMENT NOTES: NCI tumour cell line growth inhibition, 48 h
MEASUREMENT LABEL: TGI

CCOP(=O)(OCC)/C(=C/c1ccccc1)CC(C)=O | > 100 µM
CN(C)c1ccc(/C=C2\C[C@H]3[C@@H]4CCC5=CC(=O)CC[C@]5(C)[C@H]4CC[C@]3(C)C2=O)cc1 | > 100 µM
CC1=NN(c2cccc(Cl)c2)C(=N/c2nc3ccccc3s2)/C1=C\C=C\c1ccccc1 | > 100 µM
C=C1CCCC(C)(C)[C@@H]1CC/C(C)=C/Cn1c2cccc(=O)c-2nc2ccccc21 | 9.37 µM

----------
- System: MALME-3M melanoma
- EXPERIMENT NOTES: NCI tumour cell line growth inhibition, 48 h
Recorded TGI values for a group of compounds are listed next.
MEASUREMENT LABEL: TGI

COc1ccc(Cc2nc3cc(Cl)ccc3o2)cc1 | > 100 µM
Cn1c(O)c(C=N)c(=O)n(C)c1=O | > 100 µM
Nc1nc(N)nc(-c2cnc3ccccc3c2)n1 | > 100 µM

----------
- System: PC-3 prostate
- EXPERIMENT NOTES: NCI tumour cell line growth inhibition, 48 h
Form field: TGI (one value per entry).
MEASUREMENT LABEL: TGI

COc1cccc(N=N/C(=N/NC(=O)c2cc(Cl)ccc2O)c2ccc(N(CCC#N)CCC#N)cc2C)c1 | > 100 µM
Cc1cc(O)c2c(c1O)C(=O)c1c(O)ccc(O)c1C2=O | > 100 µM
COc1cc(-c2nn(C)nc2-c2cc3ccccc3s2)cc(OC)c1OC | > 100 µM
O=C(O[C@H]1CN[C@H](C#Cc2cc3ncnc(Nc4ccc(Cc5ccccc5)cc4)c3s2)C1)N1CCOCC1 | > 25 µM
N#Cc1cc2c(n(C3OC(CO)C(O)C(O)C3O)c1=S)CCCCC2 (stereo unspecified) | > 100 µM
Cn1c2c(c3c(=O)[nH]ncc31)CCc1ccccc1-2 | > 100 µM

----------
- Test system: DU-145 prostate
- EXPERIMENT NOTES: NCI tumour cell line growth inhibition, 48 h
Below is a list of entries, each paired with its recorded TGI value.
MEASUREMENT LABEL: TGI

C/C(Sc1ccccc1)=C1/CCCN(Cc2ccccc2)C1 | > 100 µM
Cc1cc2c(cc1C)C(=O)c1ncccc1C2=O | > 100 µM
CC(C)(C)OC(=O)N1C[C@H](CC(=O)OCc2ccccc2)C[C@H]1C(=O)OCC(Cl)(Cl)Cl | > 50 µM
Cc1cc2c(cc1Cl)SC(NN(C)C)=NS2(=O)=O | > 10 µM
Nc1nc(N)nc(-c2cnc3ccccc3c2)n1 | > 100 µM
O=P(O)(O)OP(=O)(O)O | > 100 µM
Nn1c(-c2ccccc2Nc2ccccc2-c2n[nH]c(=S)n2N)n[nH]c1=S | > 50 µM
Nc1cc(OCc2ccccc2)c(OCc2ccccc2)cc1C=O | > 100 µM
CCC(C)[C@H]1C(=O)N=C(N)N1C(=O)OCc1ccccc1 (stereo partly drawn) | > 100 µM
Cc1c(NC(=O)CCCl)c(=O)oc2c(C)c3occc(=O)c3cc12 | > 100 µM
CSc1sc(C)cc1-c1nsc(=O)o1 | > 100 µM
COC(OC)C1(c2ccccc2)Oc2ccccc2C1=O (stereo not drawn) | > 100 µM
COc1cccc(N=N/C(=N/NC(=O)c2cc(Cl)ccc2O)c2ccc(N(CCC#N)CCC#N)cc2C)c1 | > 100 µM
